Tested on: SF-539
method-summary: Growth inhibition of human SF539 cells after 48 hrs by SRB staining method
Format: functional
experimental-parameters: SF-539, 48 h
Please respond with reported GI50 for every item in the list.

Answered examples (4):
Query block: Give GI50 for this entry on SF-539: Nc1cc(N)c2nc(-c3ccccc3)c(Nc3ccc(F)cc3)nc2c1
Result block: 11 µM

Query block: Give GI50 for this entry on SF-539: Nc1cc(N)c2nc(-c3ccccc3)c(Nc3ccc(Cl)c(Cl)c3)nc2c1
Result block: 17 µM

Query block: Give GI50 for this entry on SF-539: COc1ccc(Nc2nc3cc(N)cc(N)c3nc2-c2ccccc2)cc1OC
Result block: 16.2 µM

Query block: Give GI50 for this entry on SF-539: COc1cc(Nc2nc3cc(N)cc(N)c3nc2-c2ccccc2)cc(OC)c1OC
Result block: 14.8 µM

Moving on to another compound below.
Query block: Give GI50 for this entry on SF-539: CCOC(=O)CCC(NC(=O)c1ccc(Nc2nc3cc(N)cc(N)c3nc2-c2ccccc2)cc1)C(=O)OCC (stereo not given)
Result block: 27.5 µM

====

Tested on: MDA-MB-231
method-summary: Growth inhibition of human MDA-MB-231 cells after 48 hrs by SRB staining method
Type: functional
experimental-parameters: MDA-MB-231, 48 h, read-out: pTGI (converted)
readout-name: TGI (µM)
Give bare numbers, in µM.

Below are some compounds; for each one, tell me its TGI.
1. CCOC(=O)CCC(NC(=O)c1ccc(Nc2nc3cc(N)cc(N)c3nc2-c2ccccc2)cc1)C(=O)OCC (configuration not stated)
2. Nc1cc(N)c2nc(-c3ccccc3)c(Nc3ccc(F)cc3)nc2c1

Result block:
28.2
30.2

====

Please respond with reported TGI for every item in the list.
Tested on: SN12C
method-summary: Growth inhibition of human SN12C cells after 48 hrs by SRB staining method
Type: functional
experimental-parameters: read-out: pTGI (converted)

Answered examples (5):
Query block: Give TGI for this entry on SN12C: COc1cc(Nc2nc3cc(N)cc(N)c3nc2-c2ccccc2)cc(OC)c1
Result block: > 100 µM

Query block: Give TGI for this entry on SN12C: COc1ccc(Nc2nc3cc(N)cc(N)c3nc2-c2ccccc2)cc1
Result block: 57.5 µM

Query block: Give TGI for this entry on SN12C: Nc1cc(N)c2nc(-c3ccccc3)c(Nc3ccc(Cl)c(Cl)c3)nc2c1
Result block: 31.6 µM

Query block: Give TGI for this entry on SN12C: COc1ccc(Nc2nc3cc(N)cc(N)c3nc2-c2ccccc2)cc1OC
Result block: 43.7 µM

Query block: Give TGI for this entry on SN12C: COc1cc(Nc2nc3cc(N)cc(N)c3nc2-c2ccccc2)cc(OC)c1OC
Result block: 83.2 µM

Moving on to another molecule below.
Query block: Give TGI for this entry on SN12C: Nc1cc(N)c2nc(-c3ccccc3)c(Nc3ccc(F)cc3)nc2c1
Result block: 33.9 µM

====

Please respond with reported CC50 for every item in the list.
Tested on: EKVX
method-summary: Growth inhibition of human EKVX cells after 48 hrs by SRB staining method
Type: functional
experimental-parameters: read-out: pLC50 (the source's name) (converted)

Query block: Entry COc1ccc(Nc2nc3cc(N)cc(N)c3nc2-c2ccccc2)cc1 needs its CC50 filled in; supply it.
Result block: > 100 µM

Below are some compounds; for each one, tell me its CC50.
1. CCOC(=O)CCC(NC(=O)c1ccc(Nc2nc3cc(N)cc(N)c3nc2-c2ccccc2)cc1)C(=O)OCC (configuration not stated)
2. Nc1cc(N)c2nc(-c3ccccc3)c(Nc3ccc(F)cc3)nc2c1
3. COc1cc(Nc2nc3cc(N)cc(N)c3nc2-c2ccccc2)cc(OC)c1OC
4. COc1ccc(Nc2nc3cc(N)cc(N)c3nc2-c2ccccc2)cc1OC
5. Nc1cc(N)c2nc(-c3ccccc3)c(Nc3ccc(Cl)c(Cl)c3)nc2c1
6. COc1cc(Nc2nc3cc(N)cc(N)c3nc2-c2ccccc2)cc(OC)c1

Result block:
1. > 100 µM
2. 75.9 µM
3. > 100 µM
4. > 100 µM
5. 47.9 µM
6. > 100 µM

====

tested-target: Thymidylate synthase (Lactobacillus casei, UniProt P00469)
Sequence (P00469 whole entry): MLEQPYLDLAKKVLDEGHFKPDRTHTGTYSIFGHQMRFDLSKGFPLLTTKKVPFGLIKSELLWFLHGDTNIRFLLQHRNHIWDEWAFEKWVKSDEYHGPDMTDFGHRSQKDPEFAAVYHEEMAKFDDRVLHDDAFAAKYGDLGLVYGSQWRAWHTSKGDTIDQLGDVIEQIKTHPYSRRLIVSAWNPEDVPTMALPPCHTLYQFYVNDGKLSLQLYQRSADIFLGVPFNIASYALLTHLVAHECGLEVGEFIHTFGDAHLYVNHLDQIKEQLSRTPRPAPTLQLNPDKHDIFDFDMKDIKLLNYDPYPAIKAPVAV
pKi: −log10 of the molar value.
Entry flag: True if pKi reaches 5; False if it does not.

Here's what some known entries look like.
Query block: Hi, just wondering whether Nc1cc(N)c2nc(-c3ccccc3)c(Nc3ccc(Cl)c(Cl)c3)nc2c1 shows pKi of 5 or higher.
Result block: True

Query block: Hi, just wondering whether Nc1cc(N)c2nc(-c3ccccc3)c(Nc3ccc(F)cc3)nc2c1 shows pKi of 5 or higher.
Result block: True

Query block: Hi, just wondering whether CCOC(=O)CCC(NC(=O)c1ccc(Nc2nc3cc(N)cc(N)c3nc2-c2ccccc2)cc1)C(=O)OCC (stereo unspecified) shows pKi of 5 or higher.
Result block: False

***
Query block: Hi, just wondering whether CCOC(=O)CCC(NC(=O)c1ccc(Nc2nc3cc([N+](=O)[O-])cc([N+](=O)[O-])c3nc2-c2ccccc2)cc1)C(=O)OCC (stereo unspecified) shows pKi of 5 or higher.
Result block: False

Query block: Hi, just wondering whether COc1ccc(Nc2nc3cc(N)cc(N)c3nc2-c2ccccc2)cc1OC shows pKi of 5 or higher.
Result block: True

====

tested-target: Thymidylate synthase (Escherichia coli) (UniProt C3SWJ7)
Sequence (C3SWJ7 1-264): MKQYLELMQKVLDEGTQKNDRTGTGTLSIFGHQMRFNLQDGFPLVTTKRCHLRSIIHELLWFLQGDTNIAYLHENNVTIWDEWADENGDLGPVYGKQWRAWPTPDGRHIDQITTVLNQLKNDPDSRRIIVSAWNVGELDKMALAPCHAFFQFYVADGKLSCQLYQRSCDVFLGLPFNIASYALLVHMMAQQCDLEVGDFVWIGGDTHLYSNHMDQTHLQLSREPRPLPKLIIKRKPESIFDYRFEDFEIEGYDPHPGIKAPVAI
method-summary: Inhibition of Escherichia coli thymidylate synthase at 10 uM
Calls of active or inactive are those of the source. The calls are words filed in the database; no cut-off is given here.
readout-name: Activity

Answered examples (4):
Query block: Give Activity for this entry on Thymidylate synthase (Escherichia coli) (UniProt C3SWJ7): COc1ccc(Nc2nc3cc(N)cc(N)c3nc2-c2ccccc2)cc1OC
Result block: inactive

Query block: Give Activity for this entry on Thymidylate synthase (Escherichia coli) (UniProt C3SWJ7): CCOC(=O)CCC(NC(=O)c1ccc(Nc2nc3cc(N)cc(N)c3nc2-c2ccccc2)cc1)C(=O)OCC (stereo not given)
Result block: inactive

Query block: Give Activity for this entry on Thymidylate synthase (Escherichia coli) (UniProt C3SWJ7): COc1cc(Nc2nc3cc([N+](=O)[O-])cc([N+](=O)[O-])c3nc2-c2ccccc2)cc(OC)c1OC
Result block: inactive

Query block: Give Activity for this entry on Thymidylate synthase (Escherichia coli) (UniProt C3SWJ7): COc1cc(Nc2nc3cc([N+](=O)[O-])cc([N+](=O)[O-])c3nc2-c2ccccc2)cc(OC)c1
Result block: inactive

Moving on to another compound below.
Query block: Give Activity for this entry on Thymidylate synthase (Escherichia coli) (UniProt C3SWJ7): COc1ccc(Nc2nc3cc([N+](=O)[O-])cc([N+](=O)[O-])c3nc2-c2ccccc2)cc1
Result block: inactive

====

Please respond with reported CC50 for every item in the list.
Test system: OVCAR-8
method-summary: Growth inhibition of human OVCAR8 cells after 48 hrs by SRB staining method
Type: functional
experimental-parameters: OVCAR-8, 48 h, read-out: pLC50 (the source's name) (converted)
Numbers only, in µM.

Query block: Entry COc1cc(Nc2nc3cc(N)cc(N)c3nc2-c2ccccc2)cc(OC)c1OC needs its CC50 filled in; supply it.
Result block: 79.4

Query block: Entry Nc1cc(N)c2nc(-c3ccccc3)c(Nc3ccc(F)cc3)nc2c1 needs its CC50 filled in; supply it.
Result block: 74.1

Moving on to another molecule below.
Query block: Entry COc1ccc(Nc2nc3cc(N)cc(N)c3nc2-c2ccccc2)cc1 needs its CC50 filled in; supply it.
Result block: 67.6

====

Please respond with reported log10(GI50) for every item in the list.
Test system: SK-MEL-2
method-summary: Growth inhibition of human SK-MEL-2 cells after 48 hrs by SRB staining method
Type: functional
experimental-parameters: SK-MEL-2, 48 h
Plainly stated, the numbers are log10 of GI50 given in µM.

Answered examples (6):
Query block: Entry Nc1cc(N)c2nc(-c3ccccc3)c(Nc3ccc(Cl)c(Cl)c3)nc2c1 needs its log10(GI50) filled in; supply it.
Result block: 0.37

Query block: Entry Nc1cc(N)c2nc(-c3ccccc3)c(Nc3ccc(F)cc3)nc2c1 needs its log10(GI50) filled in; supply it.
Result block: 1.47

Query block: Entry COc1cc(Nc2nc3cc(N)cc(N)c3nc2-c2ccccc2)cc(OC)c1 needs its log10(GI50) filled in; supply it.
Result block: 1.08

Query block: Entry COc1ccc(Nc2nc3cc(N)cc(N)c3nc2-c2ccccc2)cc1 needs its log10(GI50) filled in; supply it.
Result block: 1.19

Query block: Entry CCOC(=O)CCC(NC(=O)c1ccc(Nc2nc3cc(N)cc(N)c3nc2-c2ccccc2)cc1)C(=O)OCC (configuration not stated) needs its log10(GI50) filled in; supply it.
Result block: 0.89

Query block: Entry COc1cc(Nc2nc3cc(N)cc(N)c3nc2-c2ccccc2)cc(OC)c1OC needs its log10(GI50) filled in; supply it.
Result block: 1.20

Moving on to another compound below.
Query block: Entry COc1ccc(Nc2nc3cc(N)cc(N)c3nc2-c2ccccc2)cc1OC needs its log10(GI50) filled in; supply it.
Result block: 1.43
